# System: CAL-62
# ASSAY INFO: OncoPanel cytotoxicity assay
# Assay type: cell-based
# TEST CONTEXT: Homo sapiens, 72 hour incubation
pIC50: −log10 of the molar value.
MEASURED PROPERTY: pIC50

Lookup: Quickly give me recorded pIC50 for CC1(C)CCC2(CC1)N[C@@H](C(=O)N[C@@H]1CC[C@@H](C(N)=O)OC1)[C@H](c1ccnc(Cl)c1F)[C@]21C(=O)Nc2cc(Cl)ccc21 [Compound B]
Found: < 5.00

Lookup: Quickly give me recorded pIC50 for CC[C@@H]1CNC2(CC2)CN1C(=O)[C@@H]1C[C@@H](F)CN1C(=O)C1=C(C(C)C)N2C(=N[C@@](C)(c3ccc(Cl)nc3)[C@H]2c2ccc(Cl)c(F)c2)S1 [Compound A]
Found: < 4.40
